- Tested on: Parabacteroides distasonis
- Protocol Summary: growth AUC relative to DMSO control (median of replicates) (fraction); higher = more growth (less inhibition), active = hit call of the paper
- Particulars: 20 µM; 24 h
Let's look at some compounds and their measured growth AUC.
Reply with just the number.

Query :: Quick one: growth AUC for Oc1cccc2cccnc12 ?
Result :: 1

###

Let's look at some compounds and their measured growth AUC.
- Test system: Lactobacillus paracasei
- Protocol Summary: growth AUC relative to DMSO control (median of replicates) (fraction); higher = more growth (less inhibition), active = hit call of the paper
- Particulars: 20 µM; 24 h
Reply with just the number.

Use the examples below as a reference point.
Compound	growth AUC
O=C(Nc1ccccc1)Nc1ccnc(Cl)c1	0.971
CCN(CC)C(=O)SCc1ccc(Cl)cc1	0.879
CC1(C)[C@H](C=C(Cl)Cl)[C@H]1C(=O)OCc1c(F)c(F)cc(F)c1F	0.947
CCN(CC)N=O	0.981
Cc1cc(Cl)ccc1OC(C)C(=O)O (stereo unspecified)	0.945

Query :: Quick one: growth AUC for C[C@@H](Oc1ccc(Oc2cnc3cc(Cl)ccc3n2)cc1)C(=O)O ?
Result :: 1.04

Query :: Also OC[C@@H](O)[C@H]1O[C@@H]2O[C@H](C(Cl)(Cl)Cl)O[C@@H]2[C@H]1O (mixture of isomers) ?
Result :: 0.943

Query :: Also O=[N+]([O-])c1c(Cl)c(Cl)cc(Cl)c1Cl ?
Result :: 0.927

Query :: Also ClC1=C(Cl)C2(Cl)C3C(Cl)C=CC3C1(Cl)C2(Cl)Cl (stereo unspecified) ?
Result :: 0.967

Query :: Also O=CNC(N1CCN(C(NC=O)C(Cl)(Cl)Cl)CC1)C(Cl)(Cl)Cl (stereo unspecified) ?
Result :: 1.06

Query :: Also c1ccc2c(c1)ccc1c3ccccc3sc21 ?
Result :: 1.03

###

- Test system: Collinsella aerofaciens
- Protocol Summary: growth AUC relative to DMSO control (median of replicates) (fraction); higher = more growth (less inhibition), active = hit call of the paper
- Particulars: 20 µM; 24 h
Metric: growth AUC
Reply with just the number.

Compound	Obs Value
O=S(=O)(c1ccc(O)cc1)c1ccc(O)cc1	0.976
CCC1COC(Cn2cncn2)(c2ccc(Cl)cc2Cl)O1 (centres undefined)	0.94
Oc1ccc(Cl)c(Cl)c1Cl	0.993

Now look at this one.
Query :: Quick one: growth AUC for COc1nc(NC(C)C)nc(NC(C)C)n1 ?
Result :: 0.995

###

Let's look at some compounds and their measured growth AUC.
- Test system: Lactobacillus gasseri
- Protocol Summary: growth AUC relative to DMSO control (median of replicates) (fraction); higher = more growth (less inhibition), active = hit call of the paper
- Particulars: 20 µM; 24 h

Use the examples below as a reference point.
Compound	Obs Value
CC1(C)C(C=C(Cl)Cl)C1C(=O)OC(C#N)c1cccc(Oc2ccccc2)c1 (stereo not given)	0.776 (inactive)
COc1cc(OC)nc(Oc2cccc(Oc3nc(OC)cc(OC)n3)c2C(=O)[O-])n1.[Na+]	0.958 (inactive)
CNC(=O)ON=C(CSC)C(C)(C)C	1.03 (inactive)
CC(Oc1ccc(Oc2ncc(C(F)(F)F)cc2Cl)cc1)C(=O)O (stereo not given)	0.922 (inactive)
COC(=O)c1ccccc1S(=O)(=O)NC(=O)N(C)c1nc(C)nc(OC)n1	1.06 (inactive)
CCC(C)(c1ccc(O)cc1)c1ccc(O)cc1	1 (inactive)
Nc1c(Cl)cc([N+](=O)[O-])cc1Cl	0.923 (inactive)
CC(Cc1ccc(C(C)(C)C)cc1)CN1CCCCC1 (stereo not given)	0.988 (inactive)
COC(=O)C(Cl)Cl	0.919 (inactive)

Now look at this one.
Query :: Quick one: growth AUC for CNC(=O)Oc1ccccc1OC(C)C ?
Result :: 0.892 (inactive)

###

Let's look at some compounds and their measured growth AUC.
- Tested on: Roseburia intestinalis
- Protocol Summary: growth AUC relative to DMSO control (median of replicates) (fraction); higher = more growth (less inhibition), active = hit call of the paper
- Particulars: 20 µM; 24 h
Reply with just the number.

Use the examples below as a reference point.
Compound	growth AUC
CN(C)S(=O)(=O)N(SC(F)(Cl)Cl)c1ccccc1	0.993
CCCSP(=O)(OCC)Oc1ccc(Br)cc1Cl (configuration not stated)	1.01
COP(N)(=O)SC (configuration not stated)	1
C[C@@H](Oc1ccc(Oc2ncc(C(F)(F)F)cc2Cl)cc1)C(=O)O	0.981
CCSC(=O)N1CCCCCC1	1

Query :: Quick one: growth AUC for Cc1cccc(C)c1N ?
Result :: 0.977

Query :: Also CCCOc1nn(C(=O)[N-]S(=O)(=O)c2ccccc2C(=O)OC)c(=O)n1C.[Na+] ?
Result :: 0.992

Query :: Also O=C(OC1CCCCC1)c1ccccc1C(=O)OC1CCCCC1 ?
Result :: 0.983

Query :: Also CCC(C)(C)c1ccc(O)cc1 ?
Result :: 0.995

Query :: Also Oc1cccc2cccnc12 ?
Result :: 1

Query :: Also CCOP(=O)(NC(C)C)Oc1ccc(SC)c(C)c1 (configuration not stated) ?
Result :: 1.02

Query :: Also CCCCC(O)(Cn1cncn1)c1ccc(Cl)cc1Cl (configuration not stated) ?
Result :: 1

###

- System: Lactobacillus paracasei
- Protocol Summary: growth AUC relative to DMSO control (median of replicates) (fraction); higher = more growth (less inhibition), active = hit call of the paper
- Particulars: 20 µM; 24 h
Everything with growth AUC lower than 0.9 is no (0); everything else, including exactly 0.9, is yes (1).

Query :: # bool: growth AUC of CC1COC(Cn2cncn2)(c2ccc(Oc3ccc(Cl)cc3)cc2Cl)O1 (stereo not drawn) >= 0.9
Result :: yes (1)

Query :: Also ClC1=C(Cl)C(Cl)(C2(Cl)C(Cl)=C(Cl)C(Cl)=C2Cl)C(Cl)=C1Cl ?
Result :: yes (1)

Query :: Also ClC1=C(Cl)C2(Cl)[C@H]3[C@@H]4O[C@@H]4[C@H](Cl)[C@H]3C1(Cl)C2(Cl)Cl (single isomer, unassigned; isomer b) ?
Result :: no (0)

Query :: Also C=C/C=C/CC1=C(C)C(OC(=O)[C@@H]2C(/C=C(\C)C(=O)OC)C2(C)C)CC1=O.C=C/C=C/CC1=C(C)[C@@H](OC(=O)[C@@H]2C(C=C(C)C)C2(C)C)CC1=O (stereo partly drawn) ?
Result :: no (0)

Query :: Also COC(=O)N(OC)c1ccccc1COc1ccn(-c2ccc(Cl)cc2)n1 ?
Result :: yes (1)

###

- System: Escherichia coli ED1a
- Protocol Summary: growth AUC relative to DMSO control (median of replicates) (fraction); higher = more growth (less inhibition), active = hit call of the paper
- Particulars: 20 µM; 24 h
Let's look at some molecules and their measured growth AUC.
Reply with just the number.

Use the examples below as a reference point.
Nc1nc(N)nc(N)n1 0.991
CC(C)(C)c1ccc(CCOc2ncnc3ccccc23)cc1 0.976

Now look at this one.
Query :: Quick one: growth AUC for COC(=O)COc1cc(Cl)c(Cl)cc1Cl ?
Result :: 0.976

###

Let's look at some compounds and their measured growth AUC.
- Test system: Akkermansia muciniphila
- Protocol Summary: growth AUC relative to DMSO control (median of replicates) (fraction); higher = more growth (less inhibition), active = hit call of the paper
- Particulars: 20 µM; 24 h
Reply with just the number.

Use the examples below as a reference point.
Compound	Experimental Target	Metric	Obs Value
COP(=S)(NC(C)C)Oc1ccc(C)cc1[N+](=O)[O-] (stereo unspecified)	Akkermansia muciniphila	growth AUC	0.926
CN/C(=N\[N+](=O)[O-])NCc1cnc(Cl)s1	Akkermansia muciniphila	growth AUC	0.906
Cc1cc(Cl)ccc1OC(C)C(=O)O (stereo unspecified)	Akkermansia muciniphila	growth AUC	0.902
CCOc1ccc(C(C)(C)COCc2cccc(Oc3ccccc3)c2)cc1	Akkermansia muciniphila	growth AUC	1.08
CCOC(=O)C(SP(=S)(OC)OC)c1ccccc1 (stereo unspecified)	Akkermansia muciniphila	growth AUC	0.867
CCN(CC)C(=O)C(C)Oc1cccc2ccccc12 (stereo unspecified)	Akkermansia muciniphila	growth AUC	0.935
COC(=O)C(C)Oc1ccc(Oc2ccc(Cl)cc2Cl)cc1 (stereo unspecified)	Akkermansia muciniphila	growth AUC	0.924
C/C(=N/Nc1nc(C)cc(C)n1)c1ccccc1C	Akkermansia muciniphila	growth AUC	1.24

Query :: Quick one: growth AUC for COC(=O)c1ccccc1S(=O)(=O)NC(=O)Nc1nc(C)cc(C)n1 ?
Result :: 1.07

Query :: Also COC(=O)c1ccccc1S(=O)(=O)NC(=O)Nc1nc(C)nc(OC)n1 ?
Result :: 1.1

Query :: Also Clc1cc(Cl)c(Cl)cc1Cl ?
Result :: 1.01

###

- Tested on: Akkermansia muciniphila
- Protocol Summary: growth AUC relative to DMSO control (median of replicates) (fraction); higher = more growth (less inhibition), active = hit call of the paper
- Particulars: 20 µM; 24 h
Let's look at some molecules and their measured growth AUC.
Reply with just the number.

Use the examples below as a reference point.
CNC(=O)Oc1cc(C)c(S(C)(=O)=O)c(C)c1 0.967
CC(C)(COCc1cccc(Oc2ccccc2)c1)c1ccc(OC(F)(F)Br)cc1 0.955
O=C(O)CCl 0.94
COC(=O)C(C)(Cl)Cl 0.86
CCOP(=S)(OCC)SCn1c(=O)oc2cc(Cl)ccc21 0.99

Now look at this one.
Query :: Quick one: growth AUC for Oc1c(Cl)ccc(Cl)c1Cl ?
Result :: 1.04
